# assayText: in vitro
# protocolConditions: human
readoutName: viability at 48 h, 1 µM (%)

* CC(=O)O[C@H]1C(=O)[C@@]2(C)[C@H]([C@H](OC(=O)c3ccccc3)[C@]3(O)C[C@H](OC(=O)[C@H](O)[C@@H](NC(=O)c4ccccc4)c4ccccc4)C(C)=C1C3(C)C)[C@]1(OC(C)=O)CO[C@@H]1C[C@@H]2O [Taxol] | 80

All figures here come from patent US20200232974A1.
